# assay.system: Cyclin-dependent kinase 2 (Homo sapiens) (UniProt P24941);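 note: mean inhibition of the CDK2–cyclin A kinase complex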
# experimental.conditions: at 1 µM
value.kind: inhibition (%)
State the answer as a number, implicitly in %.

Can you look up the measured inhibition of Clc1ccc(-c2nn3ncccc3c2-c2ccnc(Nc3ccccc3)n2)cc1 for me?
3.91

Can you look up the measured inhibition of CNC(=O)c1cncc(/C=C/c2ccccc2Cl)c1 for me?
-0.73

Can you look up the measured inhibition of COc1cccc(-n2ncc3c(N/N=C/c4ccc(F)cc4)ncnc32)c1 for me?
48.5

Can you look up the measured inhibition of O=C(Nc1n[nH]c2cc(-c3ccc(F)cc3)ccc12)C1CC1 for me?
5.81

Can you look up the measured inhibition of CCc1nn2ncccc2c1-c1ccnc(NC2CC2)n1 for me?
10.4

Can you look up the measured inhibition of CN(C)CCOc1ccc(-c2nc(-c3ccncc3)c(-c3ccc4c(c3)CC/C4=N\O)[nH]2)cc1 for me?
11.1

Can you look up the measured inhibition of CS(=O)(=O)CCNCc1coc(-c2ccc3ncnc(Nc4ccc(OCc5ccccc5)cc4)c3c2)c1 for me?
2.02

Can you look up the measured inhibition of CC1=C(C(=O)Nc2cc(Cl)c3[nH]ncc3c2)C(c2ccc(C(F)(F)F)cc2)CC(=O)N1 (stereo unspecified) for me?
9.38

Can you look up the measured inhibition of CC(=O)NCc1cccc(C#Cc2cncnc2Nc2ccc(OCc3cccc(F)c3)c(Cl)c2)c1 for me?
-3.16

Can you look up the measured inhibition of CCCN1CCC(c2ccc(Nc3nc(Nc4cc(F)ccc4C(N)=O)c4cc[nH]c4n3)c(OC)c2)CC1 for me?
0.94

Can you look up the measured inhibition of FC(F)(F)c1cccc(-c2nn3ncccc3c2-c2ccnc(Nc3ccc4c(c3)OCCO4)n2)c1 for me?
0.77

Can you look up the measured inhibition of NS(=O)(=O)c1ccc(N/N=C2\C(=O)Nc3ccc4ncccc4c32)cc1 for me?
86.6

Can you look up the measured inhibition of COc1cccc(-c2c[nH]c3c(N/N=C/c4ccncc4)ncnc23)c1 for me?
73.7

Can you look up the measured inhibition of Cc1ccc(O)cc1Nc1ccnc2cc(-c3ccccn3)ccc12 for me?
6.62

Can you look up the measured inhibition of Nc1ncc(-c2cccc(S(N)(=O)=O)c2)c2scc(-c3ccc(F)c(Cl)c3)c12 for me?
2.91

Can you look up the measured inhibition of Fc1ccc(-c2cc(-c3c[nH]nc3-c3ccccn3)ccn2)cc1 for me?
5.92

Can you look up the measured inhibition of CCN(CC)S(=O)(=O)c1ccc(OC)c(Nc2ncc(-c3ccccc3)o2)c1 for me?
5.22

Can you look up the measured inhibition of N#Cc1c(NC(=O)c2ccc(F)cc2)sc2c1CCCC2 for me?
-1.07

Can you look up the measured inhibition of COC(=O)c1sc(-n2cnc3cc(OC)c(OC)cc32)cc1OCc1ccccc1C(F)(F)F for me?
3.81

Can you look up the measured inhibition of N#Cc1c(NC(=O)CN2CCOCC2)sc2c1CCCC2 for me?
4.28

Can you look up the measured inhibition of CNC(=O)c1cccc(C#Cc2cncnc2Nc2ccc(OCc3cccc(F)c3)c(Cl)c2)c1 for me?
6.57

====

# assay.system: Dual specificity protein kinase TTK (Homo sapiens)
# experimental.conditions: at 0.1 µM
# Description: GSK_PKIS: TTK mean inhibition at 0.1 uM [Nanosyn]
What inhibition was measured for each of the following?
State the answer as a number, implicitly in %.

Can you look up the measured inhibition of CCc1nn2ncccc2c1-c1ccnc(NC2CC2)n1 for me?
-1.9

Can you look up the measured inhibition of CC(=O)Nc1cccc(C#Cc2cncnc2Nc2ccc(OCc3cccc(F)c3)c(Cl)c2)c1 for me?
3.58

Can you look up the measured inhibition of CCCN(CCS(C)(=O)=O)Cc1ccc(-c2ccc3ncnc(Nc4ccc(OCc5cccc(F)c5)c(Cl)c4)c3c2)o1 for me?
2.14

Can you look up the measured inhibition of CN1CCC(n2cnc(-c3ccc(F)cc3)c2-c2ccnc(N)n2)CC1 for me?
5.14

Can you look up the measured inhibition of COc1cc2ncn(-c3cc(OCc4ccccc4C(F)(F)F)c(C(=O)N(C)C)s3)c2cc1OC for me?
4.69

Can you look up the measured inhibition of COc1ccc2[nH]c3c4[nH]c5ccc(OC)cc5c4c4c(c3c2c1)C(=O)NC4=O for me?
15.5

Can you look up the measured inhibition of CN(C)CCOc1ccc(-c2nc(-c3ccncc3)c(-c3ccc4c(c3)CC/C4=N\O)[nH]2)cc1 for me?
6.91

Can you look up the measured inhibition of CC(C)(CO)CNC(=O)c1ccc2c(c1)/C(=N/Nc1ccc(S(N)(=O)=O)cc1)C(=O)N2 for me?
61.5

Can you look up the measured inhibition of NS(=O)(=O)c1ccc(Nc2ncc(-c3ccccc3)o2)cc1 for me?
6.13

Can you look up the measured inhibition of O=S(=O)(CCNCc1ccc(-c2ccc3ncnc(Nc4ccc(OCc5cccc(F)c5)c(Cl)c4)c3c2)o1)c1ccccc1 for me?
7.34

Can you look up the measured inhibition of Nc1nc(-c2ccc(F)cc2)c(-c2ccc3ncccc3n2)s1 for me?
9.86

Can you look up the measured inhibition of CCOc1ccc2c(-c3ccnc(Nc4cccc(C(F)(F)F)c4)n3)cnn2n1 for me?
3.43

Can you look up the measured inhibition of COc1cc(N2CCN(C(C)C)CC2)ccc1Nc1nc(Nc2ccc(F)cc2C(N)=O)c2cc[nH]c2n1 for me?
83

Can you look up the measured inhibition of CS(=O)(=O)CCNCc1coc(-c2ccc3ncnc(Nc4ccc(OCc5ccccc5)cc4)c3c2)c1 for me?
5.49

Can you look up the measured inhibition of CNC(=O)c1cc(-c2ccc(F)cc2)cc(-c2ccc(S(=O)(=O)N3CCCC3)cc2)c1N for me?
4.67

Can you look up the measured inhibition of [O-][S+]1CCN(Cc2ccc(-c3ccc4ncnc(Nc5ccc(OCc6cccc(F)c6)c(Cl)c5)c4c3)o2)CC1 for me?
14.8

Can you look up the measured inhibition of CCn1c(-c2nonc2N)nc2ccccc21 for me?
3.51

Can you look up the measured inhibition of COc1ccc(-c2cc3c(N)ncnc3o2)cc1 for me?
0.22

Can you look up the measured inhibition of CCn1c(-c2nonc2N)nc2c(C#CC(C)(C)O)nc(OC[C@H](N)c3ccccc3)cc21 for me?
7.61

Can you look up the measured inhibition of Fc1cccc(COc2ccc(Nc3ncnc4sc(-c5ccco5)cc34)cc2Cl)c1 for me?
6.94

====

# assay.system: Serine/threonine-protein kinase MRCK alpha (Homo sapiens) (UniProt Q5VT25);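 note: each value is an averaged percent inhibition of MRCK alpha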
# Sequence (Q5VT25 whole entry): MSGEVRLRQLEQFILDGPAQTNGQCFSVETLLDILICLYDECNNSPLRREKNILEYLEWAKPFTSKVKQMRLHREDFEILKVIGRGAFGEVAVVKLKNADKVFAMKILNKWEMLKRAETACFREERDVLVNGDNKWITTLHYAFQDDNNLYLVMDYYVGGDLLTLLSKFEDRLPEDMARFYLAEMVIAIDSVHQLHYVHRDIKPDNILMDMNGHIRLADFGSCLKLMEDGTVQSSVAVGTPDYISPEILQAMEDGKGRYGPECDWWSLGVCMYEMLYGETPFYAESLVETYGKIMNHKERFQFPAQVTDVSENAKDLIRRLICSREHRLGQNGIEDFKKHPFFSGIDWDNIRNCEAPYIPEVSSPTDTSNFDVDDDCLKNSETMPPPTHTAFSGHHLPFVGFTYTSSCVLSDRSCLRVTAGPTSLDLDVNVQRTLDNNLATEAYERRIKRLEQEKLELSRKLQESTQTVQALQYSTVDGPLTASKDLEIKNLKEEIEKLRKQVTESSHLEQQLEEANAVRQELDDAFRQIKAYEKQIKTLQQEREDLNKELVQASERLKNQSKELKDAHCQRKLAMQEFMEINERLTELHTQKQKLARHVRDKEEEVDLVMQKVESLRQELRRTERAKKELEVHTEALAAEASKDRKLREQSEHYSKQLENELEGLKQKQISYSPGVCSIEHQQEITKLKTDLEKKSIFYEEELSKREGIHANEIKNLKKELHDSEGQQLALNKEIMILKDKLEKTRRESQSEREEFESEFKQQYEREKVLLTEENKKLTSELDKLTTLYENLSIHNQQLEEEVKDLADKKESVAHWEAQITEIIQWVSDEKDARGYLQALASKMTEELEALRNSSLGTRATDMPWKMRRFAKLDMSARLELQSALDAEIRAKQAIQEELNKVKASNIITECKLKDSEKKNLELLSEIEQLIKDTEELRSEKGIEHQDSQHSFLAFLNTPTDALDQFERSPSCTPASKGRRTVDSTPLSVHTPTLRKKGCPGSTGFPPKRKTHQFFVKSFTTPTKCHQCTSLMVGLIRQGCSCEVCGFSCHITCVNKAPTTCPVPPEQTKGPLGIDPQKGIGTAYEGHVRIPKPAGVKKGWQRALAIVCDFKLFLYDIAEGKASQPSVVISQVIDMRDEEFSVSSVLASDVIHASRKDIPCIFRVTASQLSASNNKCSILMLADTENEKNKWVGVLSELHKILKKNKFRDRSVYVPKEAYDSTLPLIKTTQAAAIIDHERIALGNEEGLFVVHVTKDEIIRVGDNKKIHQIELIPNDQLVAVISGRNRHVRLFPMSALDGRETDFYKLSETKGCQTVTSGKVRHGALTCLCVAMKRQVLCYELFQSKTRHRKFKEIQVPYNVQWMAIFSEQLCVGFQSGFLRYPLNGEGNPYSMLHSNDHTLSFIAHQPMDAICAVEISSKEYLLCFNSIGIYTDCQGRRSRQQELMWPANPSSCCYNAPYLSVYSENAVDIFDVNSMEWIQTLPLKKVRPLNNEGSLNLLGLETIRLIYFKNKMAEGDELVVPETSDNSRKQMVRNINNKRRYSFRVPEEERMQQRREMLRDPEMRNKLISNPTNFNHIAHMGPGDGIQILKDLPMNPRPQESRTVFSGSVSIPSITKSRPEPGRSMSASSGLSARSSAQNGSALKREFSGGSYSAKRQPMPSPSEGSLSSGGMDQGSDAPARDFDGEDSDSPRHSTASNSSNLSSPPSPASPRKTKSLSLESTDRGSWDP
# experimental.conditions: at 1 µM
value.kind: inhibition (%)
State the answer as a number, implicitly in %.

Can you look up the measured inhibition of CCOc1ccc2c(-c3ccnc(Nc4cccc(C(F)(F)F)c4)n3)cnn2n1 for me?
-1.89

Can you look up the measured inhibition of CNC(=O)c1cncc(/C=C/c2ccccc2Cl)c1 for me?
2.33

Can you look up the measured inhibition of c1ccc(-c2nc3n(c2-c2ccc4c(c2)OCO4)CCC3)nc1 for me?
-0.39

Can you look up the measured inhibition of Cc1ccc(O)cc1Nc1ccnc2cc(-c3ccccn3)ccc12 for me?
-2.04

Can you look up the measured inhibition of O=S(=O)(CCNCc1ccc(-c2ccc3ncnc(Nc4ccc(OCc5cccc(F)c5)c(Cl)c4)c3c2)o1)c1ccccc1 for me?
0.31

Can you look up the measured inhibition of COc1ccc(-c2oc3ncnc(N)c3c2-c2ccc(NC(=O)Nc3cc(C(F)(F)F)ccc3F)cc2)cc1 for me?
6.52

Can you look up the measured inhibition of N#Cc1c(NC(=O)c2ccc(F)cc2)sc2c1CCCC2 for me?
-0.05

Can you look up the measured inhibition of CS(=O)(=O)CCNCc1coc(-c2ccc3ncnc(Nc4ccc(OCc5ccccc5)cc4)c3c2)c1 for me?
0.57

Can you look up the measured inhibition of COc1ccc2[nH]c3c4[nH]c5ccc(OC)cc5c4c4c(c3c2c1)C(=O)NC4=O for me?
11.8

Can you look up the measured inhibition of COc1cc(N2CCN(C(C)C)CC2)ccc1Nc1nc(Nc2ccc(F)cc2C(N)=O)c2cc[nH]c2n1 for me?
20

Can you look up the measured inhibition of FC(F)(F)c1cccc(-c2nn3ncccc3c2-c2ccnc(Nc3ccc4c(c3)OCCO4)n2)c1 for me?
0.81

Can you look up the measured inhibition of COC(=O)c1sc(-n2cnc3cc(OC)c(OC)cc32)cc1OCc1ccccc1C(F)(F)F for me?
-2.93

Can you look up the measured inhibition of Fc1cccc(COc2ccc(Nc3ncnc4sc(-c5ccco5)cc34)cc2Cl)c1 for me?
-2.22

Can you look up the measured inhibition of COc1ccc(-c2cc(-c3c[nH]nc3-c3ccccn3)ccn2)cc1 for me?
3.02

Can you look up the measured inhibition of NC(=O)c1sc(-n2cnc3ccc(C(F)(F)F)cc32)cc1OCc1ccccc1Br for me?
1.97

Can you look up the measured inhibition of Cc1cccc(Nc2ncc(-c3ccccc3)o2)c1 for me?
8.12

Can you look up the measured inhibition of CCc1nn2ncccc2c1-c1ccnc(NC2CC2)n1 for me?
2.27

Can you look up the measured inhibition of Nc1nc(-c2cccc(Cl)c2)c(-c2ccc3ncccc3n2)s1 for me?
5.58

Can you look up the measured inhibition of c1ccc(COc2ccc(Nc3ncnc4ccc(-c5ccco5)cc34)cc2)cc1 for me?
-2.24

Can you look up the measured inhibition of CN1CCC(n2cnc(-c3ccc(F)cc3)c2-c2ccnc(Nc3ccccc3)n2)CC1 for me?
10.7

Can you look up the measured inhibition of CC(=O)Nc1cccc(C#Cc2cncnc2Nc2ccc(OCc3cccc(F)c3)c(Cl)c2)c1 for me?
0.82

Can you look up the measured inhibition of COC(=O)Nc1nc2ccc(Oc3ccc(NC(=O)Nc4cccc(Cl)c4)cc3)cc2[nH]1 for me?
-0.92

Can you look up the measured inhibition of Fc1ccc(-c2nn3ccccc3c2-c2ccncc2)cc1 for me?
3.93

Can you look up the measured inhibition of O=C(O[C@H]1CN[C@H](C#Cc2cc3ncnc(Nc4ccc(Cc5ccccc5)cc4)c3s2)C1)N1CCOCC1 for me?
0.21

Can you look up the measured inhibition of COc1cc2c(cc1Nc1nc(Nc3ccsc3C(N)=O)c3cc[nH]c3n1)N(C(=O)CN(C)C)CCC2(C)C for me?
6.74

Can you look up the measured inhibition of CNC(=O)c1cc(-c2ccc(F)cc2)cc(-c2ccc(S(=O)(=O)N3CCCC3)cc2)c1N for me?
0.6

Can you look up the measured inhibition of Cc1cccc2c1NC(=O)/C2=N\Nc1ccc(S(N)(=O)=O)cc1 for me?
-1.52

Can you look up the measured inhibition of c1cc(-c2cnn3nc(N4CCOCC4)ccc23)nc(NC2CC2)n1 for me?
-0.69

Can you look up the measured inhibition of O=C(Nc1n[nH]c2cc(-c3ccc(F)cc3)ccc12)C1CC1 for me?
0.87

Can you look up the measured inhibition of CCN(CC)S(=O)(=O)c1ccc(OC)c(Nc2ncc(-c3ccccc3)o2)c1 for me?
0.2

Can you look up the measured inhibition of COc1cc(Nc2nccc(Nc3ccc4c(C)n[nH]c4c3)n2)cc(OC)c1OC for me?
-0.15

Can you look up the measured inhibition of CS(=O)(=O)CCNCc1ccc(-c2ccc3ncnc(Nc4ccc(OCc5ccccc5)c(C(F)(F)F)c4)c3c2)o1 for me?
-1.92

Can you look up the measured inhibition of CN(C)CCOc1ccc(-c2nc(-c3ccncc3)c(-c3ccc4c(c3)CC/C4=N\O)[nH]2)cc1 for me?
0.77

Can you look up the measured inhibition of NS(=O)(=O)c1ccc(N/N=C2\C(=O)Nc3ccc4ncccc4c32)cc1 for me?
13.5

Can you look up the measured inhibition of COc1cc2ncn(-c3cc(OCc4ccccc4C(F)(F)F)c(C(=O)N(C)C)s3)c2cc1OC for me?
0.75

Can you look up the measured inhibition of CCn1c(-c2nonc2N)nc2c(C#CC(C)(C)O)nc(OC[C@H](N)c3ccccc3)cc21 for me?
36.3

Can you look up the measured inhibition of Cc1ccc2c(-c3ccnc(Nc4ccccc4)n3)c(-c3ccc(F)cc3)nn2n1 for me?
7.71

Can you look up the measured inhibition of CCn1cc(-c2ccnc3[nH]ccc23)c(-c2cccc(NC(=O)Nc3ccc(OCc4ccccc4)cc3)c2)n1 for me?
4.85

Can you look up the measured inhibition of Fc1ccc(-c2nn3ncccc3c2-c2ccnc(Nc3ccc4c(c3)OCCO4)n2)cc1 for me?
20.4

Can you look up the measured inhibition of Nc1nc(-c2ccc(F)cc2)c(-c2ccc3ncccc3n2)s1 for me?
3.87

Can you look up the measured inhibition of CN1CCC(n2cnc(-c3ccc(F)cc3)c2-c2ccnc(N)n2)CC1 for me?
1.4

Can you look up the measured inhibition of NS(=O)(=O)c1ccc(Nc2ncc(-c3ccccc3)o2)cc1 for me?
-1.21
